The following binders are shown together with reported pKd values.
STUDY_SYSTEM: VEGF-165 (Homo sapiens, UniProt P15692-4 P15692-4:27-191)
Sequence (P15692 other isoform, or with tags, fused parts or gaps): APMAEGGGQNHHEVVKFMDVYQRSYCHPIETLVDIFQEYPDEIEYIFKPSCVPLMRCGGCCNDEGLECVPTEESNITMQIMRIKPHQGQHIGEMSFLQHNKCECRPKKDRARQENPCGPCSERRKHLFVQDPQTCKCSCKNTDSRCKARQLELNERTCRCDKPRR
TEST_SUMMARY: SPR; existing aptamer control; 25 C
COND: tags: PeproTech; chain copies: 2 (dimer, concentrations stated in terms of dimer)
Formally, pKd is defined as -log10 of the concentration c, with c in mol/L.

binder="ATCGTATCAGTCCACAAGCCCGTCTTCCAGACAAGAGTGCAGGGC (ssDNA) [contVG-45]" numeric_value=10.09

Alright, here's another binder for you.
Requested field: pKd. Item: CGATCGTATCAGTCCACAAGCCCGTCTTCCAGACAAGAGTGCAGGGC (ssDNA) [contVG-47]
10.36
